B1: 1ZHC (parent)
chain: HEFRDEISVLKANNPHFDKIFEKHNQLDDDIKTAEQQNASDAEVSHMKKQKLKLKDEIHSMIIEYREK

Variants of: B1
experiment notes: folding stability dG (cDNA display proteolysis); higher = more stable
test conditions: PBS, room temperature
endpoint: folding stability dG (kcal/mol)
Express it in kcal/mol; write the number only.

* K48R | 0.398
* E67H | 1.04
* L52I | 0.913
* L52E | 1.17
* E57D | -0.8
* K49Q | 1.27

Asked: Quick one: folding stability dG for K32T ?
Given back: 0.187

Asked: Dear colleague, I am looking for the recorded folding stability dG of the following variant: I20L
Given back: 0.743

Asked: Fill in: folding stability dG of D5N is ___
Given back: 0.625

Asked: Reported folding stability dG for A12W : what is it?
Given back: -0.494

Asked: Requested field: folding stability dG. Item: A42C
Given back: 0.68
